Test system: MOLT-4 leukemia
assay.method.text: NCI tumour cell line growth inhibition, 48 h
value.type: TGI

CC(=O)N=C(N=Nc1c(O)[nH]c2ccc(C)cc12)NC(C)=O
> 100 µM
CN(C)c1nc(N(C)C)nc(N(C)C)n1
136 µM
CN(C)CCCCN1CCc2c(n(C)c3ccccc23)C1=O
> 87.6 µM
CCC1(C)C=Cc2c(cc(OC)c3c(=O)c4ccccc4n(C)c23)O1 (stereo unspecified)
> 10 µM
COC(=O)c1ccccc1C1CN=NC12Cc1ccc3ccccc3c1C2=O (stereo unspecified)
> 100 µM
CCOC(=O)c1cc2cc(N(C(C)=O)C(C)=O)ccc2s1
51 µM
Cc1ccc(NC(c2ccccc2)c2ccc3cccnc3c2O)cc1 (stereo unspecified)
17.3 µM
CN(C)CCNC(=O)c1ccc(Nc2nc3ccccc3c3occc23)cc1
5.17 µM

Data request: TGI for CC(C)(C)OC(=O)[N+](=N)C(=O)C1CCC(=O)N1C(=O)OCc1ccccc1 (stereo unspecified) ?
Data returned: > 100 µM

Data request: TGI for CC(C)C(C(=O)O)N(CC1(O)OCC(O)C(O)C1O)N=O (stereo unspecified) ?
Data returned: > 100 µM

Data request: TGI for O=[N+]([O-])c1ccc(N2CCN(Cc3ccccc3)CC2)c2c1no[n+]2[O-] ?
Data returned: 2.39 µM
